- subject of test: Monoaminoxidase A (Rattus norvegicus, UniProt P21396)
- Sequence (P21396 whole entry): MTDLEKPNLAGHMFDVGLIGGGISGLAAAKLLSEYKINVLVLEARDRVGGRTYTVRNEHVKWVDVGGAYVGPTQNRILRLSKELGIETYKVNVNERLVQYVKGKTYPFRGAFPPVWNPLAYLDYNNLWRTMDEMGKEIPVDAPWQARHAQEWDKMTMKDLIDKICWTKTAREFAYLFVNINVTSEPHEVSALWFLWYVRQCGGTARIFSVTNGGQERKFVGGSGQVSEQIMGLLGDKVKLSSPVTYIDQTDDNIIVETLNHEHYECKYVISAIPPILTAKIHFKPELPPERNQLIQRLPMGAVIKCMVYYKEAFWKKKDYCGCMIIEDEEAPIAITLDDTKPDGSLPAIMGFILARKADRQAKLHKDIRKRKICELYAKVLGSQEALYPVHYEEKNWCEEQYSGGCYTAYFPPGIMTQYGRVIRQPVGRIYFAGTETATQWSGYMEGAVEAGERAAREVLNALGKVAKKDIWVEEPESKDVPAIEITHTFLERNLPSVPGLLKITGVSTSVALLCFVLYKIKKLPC
- assay remarks: biochemical
- protocol conditions: monoaminoxidase A, rat brain homogenate, 14C-tryptamine 0.4 μmol/liter, 37° C., 20 minutes; read-out: Monoaminoxidase inhibition IC50
pIC50: −log10 of the molar value.
Label scheme for pIC50: lower than 7 is NO, 7 and above is YES.

Field: example entries. Status: answers known.
1. Cc1cc(C)c(S(=O)(=O)Oc2ccc3c(C)c(C)c(=O)oc3c2)c(C)c1    YES
2. CCOC(=O)c1cc2ccc(OS(=O)(=O)c3ccc([N+](=O)[O-])cc3)cc2oc1=O    NO

Moving on to another molecule below.
Exercise: Form field: pIC50 at least 7? Entry: "O=c1oc2cc(OS(=O)(=O)c3ccccc3)ccc2c2c1CCCC2"
Solution: NO
